# credit: PubChem BioAssay (Tox21)

ASSAYED SYSTEM: Estrogen receptor (Homo sapiens) (UniProt P03372)
Sequence (P03372 whole entry, looked up): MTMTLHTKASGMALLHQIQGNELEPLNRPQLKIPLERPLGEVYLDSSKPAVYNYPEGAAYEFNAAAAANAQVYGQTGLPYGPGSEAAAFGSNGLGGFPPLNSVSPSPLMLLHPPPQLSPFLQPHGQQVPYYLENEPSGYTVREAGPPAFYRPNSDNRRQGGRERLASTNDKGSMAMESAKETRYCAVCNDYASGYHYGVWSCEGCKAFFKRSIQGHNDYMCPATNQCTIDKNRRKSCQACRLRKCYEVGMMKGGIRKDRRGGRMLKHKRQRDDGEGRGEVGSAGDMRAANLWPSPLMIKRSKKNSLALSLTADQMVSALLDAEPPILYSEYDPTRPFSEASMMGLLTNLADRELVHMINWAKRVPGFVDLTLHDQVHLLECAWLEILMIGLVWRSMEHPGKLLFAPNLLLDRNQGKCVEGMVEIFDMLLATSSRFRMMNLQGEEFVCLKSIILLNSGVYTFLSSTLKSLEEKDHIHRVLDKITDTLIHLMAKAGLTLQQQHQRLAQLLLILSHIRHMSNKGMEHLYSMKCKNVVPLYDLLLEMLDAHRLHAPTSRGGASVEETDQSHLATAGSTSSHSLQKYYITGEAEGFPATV
TEST METHOD NOTES: qHTS assay to identify small molecule antagonists of the estrogen receptor alpha (ER-alpha) signaling pathway using the BG1 cell line in the presence of 0.1 nM 17-beta-estradiol (AID 1259244); also: nearly all actives have a fitted effect of over 50% in size
CONDITION INFO: VM7Luc4E2 (BG1) ERE-luciferase, antagonist mode, 0.1 nM E2, 22 h; series mostly up to 92.4 µM
Records with an inconclusive call do not appear. Activity calls are given as the source filed them. Calls follow the shape of the dose curve; as a rule, active = well fitted inhibition curve with a large enough effect in the repeat runs; inconclusive = weak or mixed curves; inactive = no such curve, though single readings can be large or run the other way.
In this exercise, the only acceptable responses are active, inactive

Answered examples (2):
COMPOUND SMILES | CATEGORY LABEL
CC(C)=CCOc1ccc(/C=C/C(=O)c2ccc(OCC=C(C)C)cc2OCC(=O)O)cc1 | inactive
CC(C)(C)NC(=O)[C@@H]1C[C@@H]2CCCC[C@@H]2CN1C[C@@H](O)[C@H](Cc1ccccc1)NC(=O)[C@H](CC(N)=O)NC(=O)c1ccc2ccccc2n1 | active

# evaluate next
In: Test call for this compound, please: "Fc1ccc([C@@H]2CCNC[C@H]2COc2ccc3c(c2)OCO3)cc1"
Out: inactive
